- EXPERIMENTAL_SYSTEM: human GRP receptors (Homo sapiens)
- ASSAY_OVERVIEW: IP1 GRPR activity: HTRF IP1-Gq assay in U2OS cells stably expressing human GRP receptors
- PARTICULARS: 90 minutes incubation, read-out: hIP1 GRPR EC50
- Experimental: U2OS cells stably expressing human GRP receptors (DiscoverX, #93-0229C3) were cultured according to manufacturer's instructions. Cells were cultured to […], then collected using AccuTase (Innovative Cell Technologies, #AT104). […] The following morning, a homogenous time-resolved fluorescence (HTRF) assay was performed in a 384-well plate format using the IP1-Gq assay kit (Cisbio, 62IPAPEB). […] EC50 and Max activity values were determined using a standard 4-parameter fit using GraphPad Prism.
Starred links: 1 amine or outer side, 2 acyl side, 3 side chain; linkers in the order of their positions; H or OH if unused. Non-standard residues stand in square brackets, D forms with d. Residues, ends and D or L forms follow the SMILES beside them. *: point of attachment. Trp(7-Me) = Cc1cccc2c(C[C@H](N)C(=O)O)c[nH]c12; C20 diacid = O=C(O)CCCCCCCCCCCCCCCCCCC(=O)*; γGlu = O=C(O)[C@H](CCC(=O)[*:2])N[*:1]; Nle = CCCC[C@H](N)C(=O)O; AEEA = NCCOCCOCC(=O)O; βAla = NCCC(=O)O
MEASURE: pEC50
pEC50 is a log-scale quantity: -log10 of the concentration expressed in molar.

Input: # get_value(readout='pEC50', item= CCCC[C@H](NC(=O)[C@H](CC(C)C)NC(=O)[C@H](Cc1c[nH]cn1)NC(=O)CCNC(=O)[C@@H](NC(=O)[C@H](C)NC(=O)[C@H](Cc1c[nH]c2c(C)cccc12)NC(=O)[C@H](Cc1c[nH]cn1)NC(=O)[C@H](CCC(=O)O)NC(=O)CNC(=O)[C@H](CO)NC(=O)COCCOCCNC(=O)COCCOCCNC(=O)CC[C@H](NC(=O)CC[C@H](NC(=O)CCCCCCCCCCCCCCCCCCC(=O)O)C(=O)O)C(=O)O)C(C)C)C(N)=O [Peptide 255] ({C20 diacid-γGlu-γGlu-AEEA-AEEA}-SGEH[Trp(7-Me)]AV[βAla]HL[Nle]-NH2) )
Output: 8.16

----------
- EXPERIMENTAL_SYSTEM: human GRP receptors (Homo sapiens, UniProt P30550)
- Sequence (P30550 whole entry): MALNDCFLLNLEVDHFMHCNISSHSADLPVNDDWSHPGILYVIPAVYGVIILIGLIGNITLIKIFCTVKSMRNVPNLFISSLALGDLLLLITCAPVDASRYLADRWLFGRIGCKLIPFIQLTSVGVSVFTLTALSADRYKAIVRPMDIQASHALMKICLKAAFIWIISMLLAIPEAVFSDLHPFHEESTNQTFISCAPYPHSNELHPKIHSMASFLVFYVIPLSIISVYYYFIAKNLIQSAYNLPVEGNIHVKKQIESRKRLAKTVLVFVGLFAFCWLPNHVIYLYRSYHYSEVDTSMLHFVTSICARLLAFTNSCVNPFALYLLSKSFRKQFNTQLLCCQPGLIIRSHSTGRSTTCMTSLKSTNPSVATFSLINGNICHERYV
- ASSAY_OVERVIEW: IP1 GRPR activity: HTRF IP1-Gq assay in U2OS cells stably expressing human GRP receptors
- PARTICULARS: 90 minutes incubation, read-out: hIP1 GRPR EC50
- Procedure: U2OS cells stably expressing human GRP receptors (DiscoverX, #93-0229C3) were cultured according to manufacturer's instructions. Cells were cultured to […], then collected using AccuTase (Innovative Cell Technologies, #AT104). […] The following morning, a homogenous time-resolved fluorescence (HTRF) assay was performed in a 384-well plate format using the IP1-Gq assay kit (Cisbio, 62IPAPEB). […] EC50 and Max activity values were determined using a standard 4-parameter fit using GraphPad Prism.
Starred links: 1 amine or outer side, 2 acyl side, 3 side chain; linkers in the order of their positions; H or OH if unused. Non-standard residues stand in square brackets, D forms with d. Residues, ends and D or L forms follow the SMILES beside them. *: point of attachment. C20 diacid = O=C(O)CCCCCCCCCCCCCCCCCCC(=O)*; d(γGlu) = O=C(O)[C@@H](CCC(=O)[*:2])N[*:1]; C18 diacid = O=C(O)CCCCCCCCCCCCCCCCC(=O)*; γGlu = O=C(O)[C@H](CCC(=O)[*:2])N[*:1]; X1 = O=C(CC1(N[*:1])CCC1)[*:2]; Nle = CCCC[C@H](N)C(=O)O; AEEA = NCCOCCOCC(=O)O
MEASURE: EC50

CCCC[C@H](NC(=O)[C@H](CC(C)C)NC(=O)[C@H](Cc1c[nH]cn1)NC(=O)[C@@H](C)NC(=O)[C@@H](NC(=O)[C@H](C)NC(=O)[C@H](Cc1c[nH]cn1)NC(=O)[C@H](Cc1c[nH]cn1)NC(=O)[C@H](CCCNC(=N)N)NC(=O)CNC(=O)COCCOCCNC(=O)COCCOCCNC(=O)CC[C@H](NC(=O)CCCCCCCCCCCCCCCCC(=O)O)C(=O)O)C(C)C)C(N)=O [Peptide 116] ({C18 diacid-γGlu-AEEA-AEEA}-GRHHAV[dA]HL[Nle]-NH2) : > 10 µM
CCCC[C@H](NC(=O)[C@H](CC(C)C)NC(=O)[C@H](Cc1c[nH]cn1)NC(=O)CC1(NC(=O)[C@@H](NC(=O)[C@H](C)NC(=O)[C@H](Cc2c[nH]c3ccccc23)NC(=O)[C@H](Cc2c[nH]cn2)NC(=O)[C@H](CCC(N)=O)NC(=O)CNC(=O)COCCOCCNC(=O)COCCOCCNC(=O)CC[C@H](NC(=O)CC[C@H](NC(=O)CCCCCCCCCCCCCCCCCCC(=O)O)C(=O)O)C(=O)O)C(C)C)CCC1)C(N)=O [Peptide 273] ({C20 diacid-γGlu-γGlu-AEEA-AEEA}-GQHWAV[X1]HL[Nle]-NH2) : 0.0123 µM
CCCC[C@H](NC(=O)[C@H](CC(C)C)NC(=O)[C@H](Cc1c[nH]cn1)NC(=O)[C@@H](C)NC(=O)[C@@H](NC(=O)[C@H](C)NC(=O)[C@H](CCCNC(=N)N)NC(=O)[C@H](Cc1c[nH]cn1)NC(=O)[C@H](CC(N)=O)NC(=O)CNC(=O)COCCOCCNC(=O)COCCOCCNC(=O)CC[C@H](NC(=O)CCCCCCCCCCCCCCCCC(=O)O)C(=O)O)C(C)C)C(N)=O [Peptide 108] ({C18 diacid-γGlu-AEEA-AEEA}-GNHRAV[dA]HL[Nle]-NH2) : > 10 µM

Read the next record carefully.
Input: # get_value(readout='EC50', item= CCCC[C@H](NC(=O)[C@H](CC(C)C)NC(=O)[C@H](Cc1c[nH]cn1)NC(=O)[C@@H](C)NC(=O)[C@@H](NC(=O)[C@H](C)NC(=O)[C@H](Cc1c[nH]cn1)NC(=O)[C@H](Cc1c[nH]cn1)NC(=O)[C@H](CC(N)=O)NC(=O)CNC(=O)COCCOCCNC(=O)COCCOCCNC(=O)CC[C@@H](NC(=O)CCCCCCCCCCCCCCCCC(=O)O)C(=O)O)C(C)C)C(N)=O [Peptide 68] ({C18 diacid-d(γGlu)-AEEA-AEEA}-GNHHAV[dA]HL[Nle]-NH2) )
Output: > 10 µM

----------
- EXPERIMENTAL_SYSTEM: human GRP receptors (Homo sapiens, UniProt P30550)
- ASSAY_OVERVIEW: IP1 GRPR activity: HTRF IP1-Gq assay in U2OS cells stably expressing human GRP receptors
- PARTICULARS: 90 minutes incubation, read-out: hIP1 GRPR EC50
Starred links: 1 amine or outer side, 2 acyl side, 3 side chain; linkers in the order of their positions; H or OH if unused. Non-standard residues stand in square brackets, D forms with d. Residues, ends and D or L forms follow the SMILES beside them. *: point of attachment. Me3N+(CH2)2O(CH2)2O(CH2)2CO = C[N+](C)(C)CCOCCOCCC(=O)*; Trp(7-Me) = Cc1cccc2c(C[C@H](N)C(=O)O)c[nH]c12; C20 diacid = O=C(O)CCCCCCCCCCCCCCCCCCC(=O)*; d(γGlu) = O=C(O)[C@@H](CCC(=O)[*:2])N[*:1]; C18 diacid = O=C(O)CCCCCCCCCCCCCCCCC(=O)*; γGlu = O=C(O)[C@H](CCC(=O)[*:2])N[*:1]; 3Pal = N[C@@H](Cc1cccnc1)C(=O)O; Nle = CCCC[C@H](N)C(=O)O; β3hA = C[C@H](N)CC(=O)O; Dap = NC[C@H](N)C(=O)O; AEEA = NCCOCCOCC(=O)O; βAla = NCCC(=O)O; Sar = CNCC(=O)O
MEASURE: EC50 (nM)
Provide the reading as a plain figure in nM.

Some entries whose results are on file:
CCCC[C@H](NC(=O)[C@H](CC(C)C)NC(=O)[C@H](Cc1c[nH]cn1)NC(=O)[C@@H](C)NC(=O)[C@@H](NC(=O)[C@H](C)NC(=O)[C@H](Cc1c[nH]c2ccccc12)NC(=O)[C@H](Cc1cccnc1)NC(=O)[C@H](CC(N)=O)NC(=O)CNC(=O)COCCOCCNC(=O)COCCOCCNC(=O)CC[C@@H](NC(=O)CCCCCCCCCCCCCCCCC(=O)O)C(=O)O)C(C)C)C(=O)N(C)CC(N)=O [Peptide 72] ({C18 diacid-d(γGlu)-AEEA-AEEA}-GN[3Pal]WAV[dA]HL[Nle][Sar]-NH2) : 1050
CCCC[C@H](NC(=O)[C@H](CC(C)C)NC(=O)[C@H](Cc1c[nH]cn1)NC(=O)CCNC(=O)[C@@H](NC(=O)[C@H](C)NC(=O)[C@H](Cc1c[nH]c2ccccc12)NC(=O)[C@H](Cc1c[nH]cn1)NC(=O)[C@H](CNC(=O)CCOCCOCC[N+](C)(C)C)NC(=O)CNC(=O)COCCOCCNC(=O)COCCOCCNC(=O)CC[C@H](NC(=O)CCCCCCCCCCCCCCCCCCC(=O)O)C(=O)O)C(C)C)C(N)=O [Peptide 262] ({C20 diacid-γGlu-AEEA-AEEA}-G[Dap](Me3N+(CH2)2O(CH2)2O(CH2)2CO)HWAV[βAla]HL[Nle]-NH2) : 4

Input: # get_value(readout='EC50', item= CCCC[C@H](NC(=O)[C@H](CC(C)C)NC(=O)[C@H](Cc1c[nH]cn1)NC(=O)C[C@H](C)NC(=O)[C@@H](NC(=O)[C@H](C)NC(=O)[C@H](Cc1c[nH]c2c(C)cccc12)NC(=O)[C@H](Cc1c[nH]cn1)NC(=O)[C@H](CC(N)=O)NC(=O)CNC(=O)COCCOCCNC(=O)COCCOCCNC(=O)CC[C@H](NC(=O)CC[C@H](NC(=O)CCCCCCCCCCCCCCCCCCC(=O)O)C(=O)O)C(=O)O)C(C)C)C(N)=O [Peptide 258] ({C20 diacid-γGlu-γGlu-AEEA-AEEA}-GNH[Trp(7-Me)]AV[β3hA]HL[Nle]-NH2) )
Output: 6
